- target-or-test-system: T1, Fc-CLEC-1A (recombinant human Fc-CLEC-1 protein, OSE IMMUNOTHERAPEUTICS) (human, Alexa Fluor 488 label in the flow cytometry competition assays)
- T1 construct: also called hFc-CLEC; Fc-CLEC1-A488
- T1 chain: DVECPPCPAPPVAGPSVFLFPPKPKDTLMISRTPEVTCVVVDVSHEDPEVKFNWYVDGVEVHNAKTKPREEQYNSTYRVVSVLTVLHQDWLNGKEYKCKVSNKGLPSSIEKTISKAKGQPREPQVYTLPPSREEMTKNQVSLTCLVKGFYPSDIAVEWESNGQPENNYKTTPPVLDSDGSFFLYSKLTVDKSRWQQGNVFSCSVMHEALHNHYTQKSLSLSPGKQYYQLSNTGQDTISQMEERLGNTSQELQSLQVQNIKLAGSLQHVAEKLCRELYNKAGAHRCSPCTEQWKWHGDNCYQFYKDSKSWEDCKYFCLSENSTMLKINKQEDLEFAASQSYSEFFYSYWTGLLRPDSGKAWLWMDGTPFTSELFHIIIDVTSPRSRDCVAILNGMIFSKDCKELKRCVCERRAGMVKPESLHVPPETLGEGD
- measurement-description: flow cytometry competition: antibody pre-incubated with A488-labelled human Fc-CLEC-1 (10 µg/mL), then binding to live Hepa1.6 cells (ligand m16); % hFc-CLEC-1+ cells normalised on hIgG4
Reported EC50 is given for each of the following binders.
// note: answer is a bare numeric in µg/mL

binder	units-of-measure	EC50
chimeric 14H9 (antibody, V domains shown) VH: QVQLKESGPGLVAPSQSLSITCTISGFSLTTYGIHWVRQPPGKGLEWLVVIWSDGSTIYNSALKSRLSISKDNSKSQVFLKMNSLQTDDTAIYYCARHGGYYNYFDYWGQGTTLTVSS VL: DIQMNQSPSSLSASLGDTITITCHASQNINVWLSWYQQKPGNIPKLLIYKASNLHTGVPSRFSGSGSGTTFTLTIDSLQPEDIATYYCQQGQSYWTFGGGTKLEIKR	µg/mL	2.72

API: the following record is the query input.
Lookup result for humanized 6C5 (antibody, V domains shown, Only variable domains are tied to the antibody) VH: QVQLVQSGAEVKKPGSSVKMSCKASGYTFTDYVISWVRQAPGQGLEWMGEIYPGSGNTYYNQKFQGRVTLTADKSTSTAYMELSSLRSEDTAVYYCAGGGSSHFDYWGQGTTVTVSS VL: EIVLTQSPATLSLSPGERATLSCRASQSVDNHGFSFMNWFQQKPGQAPRLLIYAASNRGTGIPARFSGSGSGTDFTLTISSMEPEDFAVYYCQQSKEVPWTFGGGTKVEIK ; measured EC50: 1.06
